Source: the supplement of paper PMC10567573

B1: RTP4 (parent)
chain: TYWEHWTSQGQVRMRLFGQRCQKC

Variants of: B1
Assay: protein stability index of a GFP-peptide fusion (GPS, HEK-293T) (PSI 1-6); higher = more stable;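 further: lentivirally expressed fusions sorted by FACS into six bins by GFP to DsRed ratio, PSI derived from sequencing read proportions per bin multiplied by bin number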
Settings: c terminus: a fixed tail appended
Listing of entries alongside the reported protein stability index.
Would you mind answering with just the numeric figure?

Example variants with recorded protein stability index:
[
  {
    "Variant Designation": "R20Y",
    "protein stability index": 1.97
  },
  {
    "Variant Designation": "E4Q",
    "protein stability index": 3.01
  },
  {
    "Variant Designation": "M14T",
    "protein stability index": 1.84
  }
]

Recorded result, M14F , protein stability index: 1.63

Sample W3Y ; protein stability index observed: 1.54

Looking up R13E , I see its protein stability index listed as 1.74

Query M14Q yields protein stability index of 1.73

Quick note, protein stability index for T1C landed at 2.67

Notebook: V12W , protein stability index read as 3.46

Q9P yielded protein stability index of 1.6

Noted for R15E : its protein stability index reads 2.07
